System: Colorectal cell lines KM 12 (harboring endogenous TPM3-TRKA fusion gene)
protocol_description: Cell proliferation assay, KM12 cells (CellTiter-Glo)
Format: cell-based
experimental_conditions: Homo sapiens, 72 hours incubation
readout: IC50 (nM)

C[C@@H]1COc2ccc(F)cc2CNc2ccn3ncc(c3n2)C(=O)N1 :: 3
C[C@H]1Nc2ccn3ncc(c3n2)C(=O)N2CCC[C@@H](C2)Oc2ccc(F)cc21 :: 37.3
C[C@H]1CNC(=O)c2cnn3ccc(nc23)NC(C(=O)N(C)C)c2cc(F)ccc2O1 (some centres unmarked) :: 112
CNC(=O)[C@H]1CNC(=O)c2cnn3ccc(nc23)N[C@H](C)c2cc(F)ccc2O1 :: 160
C[C@H]1Nc2ccn3ncc(c3n2)C(=O)NC[C@@H](CN2CCCC2)Oc2ccc(F)cc21 :: 70
CC[C@H]1CNC(=O)c2cnn3ccc(nc23)N[C@H](CC)c2cc(F)ccc2O1 :: 3
Cc1cn2ncc3c2nc1N[C@H](C)c1cc(F)ccc1OCCNC3=O :: 5.9
CC[C@@H]1CNC(=O)c2cnn3ccc(nc23)N[C@H](C)c2cc(F)ccc2O1 :: 0.2

---

Below, each of the molecules is paired with its reported IC50 value.
System: essential thrombocythemia cell line SET-2 cells (harboring endogenous JAK2 point mutation)
protocol_description: Cell proliferation assay, SET-2 cells (CellTiter-Glo)
Type: cell-based
experimental_conditions: Homo sapiens, 72 hours incubation, read-out: Cell Proliferation IC50 SET2
readout: IC50 (nM)

CC[C@@H]1CNC(=O)c2cnn3ccc(nc23)N[C@H](C)c2cc(F)cnc2O1 :: 174
C[C@@H]1Nc2ccn3ncc(c3n2)C(=O)NC[C@H](C)Oc2ncc(F)cc21 :: 402
CC[C@@H]1CNC(=O)c2cnn3ccc(nc23)NCc2cc(F)ccc2O1 :: 3000
C[C@H]1Nc2ccn3ncc(c3n2)C(=O)N[C@@H]2CCC[C@@H]2Oc2ccc(F)cc21 :: 30

---

System: T cell lymphoma Karpas-299 cell line (harboring endogenous NPM-ALK fusion gene)
protocol_description: Cell proliferation assay, Karpas-299 cells (CellTiter-Glo)
Assay type: cell-based
experimental_conditions: Homo sapiens, 72 hours incubation
pIC50: −log10 of the molar value.
readout: pIC50

CC[C@H]1COc2ccc(F)cc2[C@@H](C)Nc2ccn3ncc(c3n2)C(=O)N1 :: 5.86
CC[C@H]1Nc2ccn3ncc(c3n2)C(=O)NCCOc2ccc(F)cc21 :: 6.71
C[C@H]1Nc2ccn3ncc(c3n2)C(=O)NC[C@H](CF)Oc2ccc(F)cc21 :: 7.14
C[C@H]1Nc2ccn3ncc(c3n2)C(=O)N[C@H](CO)COc2ccc(F)cc21 :: 5.82
C[C@H]1Nc2ccn3ncc(c3n2)C(=O)N[C@H](C(F)F)COc2ccc(F)cc21 :: 6.53
CC[C@@H]1COc2ccc(F)cc2[C@@H](C)Nc2ccn3ncc(c3n2)C(=O)N1 :: 6.45
C[C@H]1Nc2ccn3ncc(c3n2)C(=O)NC[C@@H](CF)Oc2ccc(F)cc21 :: 7.10

---

System: essential thrombocythemia cell line SET-2 cells (harboring endogenous JAK2 point mutation)
protocol_description: Cell proliferation assay, SET-2 cells (CellTiter-Glo)
Type: cell-based
experimental_conditions: Homo sapiens, 72 hours incubation, read-out: Cell Proliferation IC50 SET2
readout: IC50 (µM)

C[C@H]1Nc2ccn3ncc(c3n2)C(=O)N[C@@H]2CCCC[C@@H]2Oc2ccc(F)cc21 :: 0.127
C[C@H]1Nc2ccn3ncc(c3n2)C(=O)NC[C@H](C(F)F)Oc2ccc(F)cc21 :: 0.0986
C[C@H]1Nc2ccn3ncc(c3n2)C(=O)NCCOc2ccccc21 :: 1.24
C[C@H]1Nc2ccn3ncc(c3n2)C(=O)NC[C@H](CN(C)C)Oc2ccc(F)cc21 :: 1.96

---

assayed_system: CD74-ROS1 Ba/F3 (Homo sapiens)
Construct: fused on or other part: P04233 (HLA class II histocompatibility antigen gamma chain)
Sequence (P08922 whole entry, change not shown, the tested form may be a part): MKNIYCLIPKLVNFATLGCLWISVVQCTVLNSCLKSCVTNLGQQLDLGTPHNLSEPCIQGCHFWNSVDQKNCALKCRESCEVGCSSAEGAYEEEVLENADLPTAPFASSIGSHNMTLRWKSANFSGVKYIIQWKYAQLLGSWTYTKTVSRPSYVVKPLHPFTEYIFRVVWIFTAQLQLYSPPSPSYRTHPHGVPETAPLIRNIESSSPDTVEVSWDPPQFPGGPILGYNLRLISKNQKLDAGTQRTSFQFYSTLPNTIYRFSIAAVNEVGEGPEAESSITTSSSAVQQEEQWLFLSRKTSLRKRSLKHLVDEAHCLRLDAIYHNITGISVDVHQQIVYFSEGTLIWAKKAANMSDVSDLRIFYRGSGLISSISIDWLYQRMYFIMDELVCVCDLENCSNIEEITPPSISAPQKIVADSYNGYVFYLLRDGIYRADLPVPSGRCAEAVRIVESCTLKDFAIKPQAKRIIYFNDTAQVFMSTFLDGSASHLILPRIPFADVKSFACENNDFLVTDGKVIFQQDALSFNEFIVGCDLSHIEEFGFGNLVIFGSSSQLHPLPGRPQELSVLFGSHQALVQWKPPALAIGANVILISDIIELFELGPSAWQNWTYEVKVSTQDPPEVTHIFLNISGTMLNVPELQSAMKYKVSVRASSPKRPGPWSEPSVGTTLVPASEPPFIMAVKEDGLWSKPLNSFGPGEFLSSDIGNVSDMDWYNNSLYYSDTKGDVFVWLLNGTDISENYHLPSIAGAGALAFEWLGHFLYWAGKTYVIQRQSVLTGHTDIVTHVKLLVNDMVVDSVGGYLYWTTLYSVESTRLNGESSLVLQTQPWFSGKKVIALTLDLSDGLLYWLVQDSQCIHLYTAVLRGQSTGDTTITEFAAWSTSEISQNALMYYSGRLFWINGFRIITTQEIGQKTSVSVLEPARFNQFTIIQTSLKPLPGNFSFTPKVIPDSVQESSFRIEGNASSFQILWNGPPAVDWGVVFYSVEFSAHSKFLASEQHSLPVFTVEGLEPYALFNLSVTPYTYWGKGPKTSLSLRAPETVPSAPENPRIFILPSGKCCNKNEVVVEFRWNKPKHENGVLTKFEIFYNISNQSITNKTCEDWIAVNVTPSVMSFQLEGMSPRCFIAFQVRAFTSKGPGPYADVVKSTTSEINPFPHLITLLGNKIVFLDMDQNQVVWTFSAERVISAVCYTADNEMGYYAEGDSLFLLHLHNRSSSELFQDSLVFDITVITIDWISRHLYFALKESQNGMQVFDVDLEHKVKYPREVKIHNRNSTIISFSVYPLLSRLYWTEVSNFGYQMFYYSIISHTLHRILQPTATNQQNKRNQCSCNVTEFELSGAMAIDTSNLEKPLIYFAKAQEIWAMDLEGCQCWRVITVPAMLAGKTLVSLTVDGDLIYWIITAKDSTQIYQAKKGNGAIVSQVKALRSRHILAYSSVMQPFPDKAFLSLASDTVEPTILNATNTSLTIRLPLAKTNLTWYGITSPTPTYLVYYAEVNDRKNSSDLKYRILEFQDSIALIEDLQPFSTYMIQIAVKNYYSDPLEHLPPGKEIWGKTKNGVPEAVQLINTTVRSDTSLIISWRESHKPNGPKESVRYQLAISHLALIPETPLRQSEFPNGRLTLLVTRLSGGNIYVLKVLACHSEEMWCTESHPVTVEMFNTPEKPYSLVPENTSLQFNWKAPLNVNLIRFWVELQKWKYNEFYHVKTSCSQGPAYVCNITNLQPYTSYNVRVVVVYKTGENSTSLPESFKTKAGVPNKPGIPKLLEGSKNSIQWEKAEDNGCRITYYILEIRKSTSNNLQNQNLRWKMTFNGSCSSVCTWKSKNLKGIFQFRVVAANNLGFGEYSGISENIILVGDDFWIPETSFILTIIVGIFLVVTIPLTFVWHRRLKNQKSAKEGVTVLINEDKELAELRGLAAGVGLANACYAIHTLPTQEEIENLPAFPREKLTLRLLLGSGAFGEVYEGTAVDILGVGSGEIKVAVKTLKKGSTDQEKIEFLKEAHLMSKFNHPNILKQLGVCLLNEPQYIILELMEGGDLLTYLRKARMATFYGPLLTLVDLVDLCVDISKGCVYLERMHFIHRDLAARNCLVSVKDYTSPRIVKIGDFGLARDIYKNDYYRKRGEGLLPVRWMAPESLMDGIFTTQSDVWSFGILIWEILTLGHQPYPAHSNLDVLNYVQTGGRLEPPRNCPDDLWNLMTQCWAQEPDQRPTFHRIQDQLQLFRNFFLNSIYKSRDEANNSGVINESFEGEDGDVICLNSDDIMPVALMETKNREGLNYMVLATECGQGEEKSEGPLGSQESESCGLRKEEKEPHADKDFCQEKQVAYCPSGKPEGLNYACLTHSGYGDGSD
protocol_description: Cell proliferation assay, CD74-ROS1 Ba/F3 stable cell line (CellTiter-Glo)
Format: cell-based
experimental_conditions: Ba/F3-CD74-ROS1 wild type cells, 72 hours compound incubation; read-out: Cell Proliferation IC50 CD74-ROS1 Ba/F3
readout: GI50 (nM)

C[C@H]1Nc2ccn3ncc(c3n2)C(=O)NC[C@H](CN(C)C)Oc2ccc(F)cc21 :: 130
CC[C@@H]1COc2ccc(F)cc2[C@@H](C)Nc2ccn3ncc(c3n2)C(=O)N1 :: 0.7
C[C@H]1Nc2ccn3ncc(c3n2)C(=O)NC[C@@H](CO)Oc2ccc(F)cc21 :: 22.6
CC[C@H]1CNC(=O)c2cnn3ccc(nc23)N[C@H](CC)c2cc(F)ccc2O1 :: 0.2
C[C@H]1Nc2ccn3ncc(c3n2)C(=O)N[C@H](CO)COc2ccc(F)cc21 :: 34.7
CC[C@H]1COc2ccc(F)cc2[C@@H](C)Nc2ccn3ncc(c3n2)C(=O)N1 :: 0.2
CC[C@@H]1CNC(=O)c2cnn3ccc(nc23)N[C@H](C)c2cc(F)ccc2O1 :: 0.2

---

Test system: essential thrombocythemia cell line SET-2 cells (harboring endogenous JAK2 point mutation)
protocol_description: Cell proliferation assay, SET-2 cells (CellTiter-Glo)
Assay type: cell-based
experimental_conditions: Homo sapiens, 72 hours incubation, read-out: Cell Proliferation IC50 SET2
Method: Cell Proliferation Assays. Colorectal cell lines KM 12 (harboring endogenous TPM3-TRKA fusion gene) cells were cultured in DMEM medium, supplemented with 10% fetal bovine serum and 100 U/mL of penicillin/streptomycin. 5000 cells were seeded in 384 well white plate for 24 hours before compounds treatment. Cell proliferation was measured using CellTiter-Glo luciferase-based ATP detection assay (Promega) following the manufactures's protocol after 72 hours incubation. […]
pIC50: −log10 of the molar value.
Form field: pIC50 (one value per entry).
readout: pIC50

C[C@@H]1COc2ccc(F)cc2CNc2ccn3ncc(c3n2)C(=O)N1 :: 6.17
C[C@@H]1CNC(=O)c2cnn3ccc(nc23)NCc2cc(F)ccc2O1 :: 5.35
C[C@H]1Nc2ccn3ncc(c3n2)C(=O)N[C@@H]2CCCC[C@H]2Oc2ccc(F)cc21 :: 6.69
Cc1cn2ncc3c2nc1N[C@H](C)c1ccccc1OCCNC3=O :: 5.30
[2H]C([2H])([2H])[C@H]1Nc2ccn3ncc(c3n2)C(=O)NC[C@H](C)Oc2ccc(F)cc21 :: 6.79
CNC(=O)[C@@H]1CNC(=O)c2cnn3ccc(nc23)N[C@H](C)c2cc(F)ccc2O1 :: 5.42
C[C@H]1Nc2ccn3ncc(c3n2)C(=O)N[C@@H](C(F)F)COc2ccc(F)cc21 :: 6.18
COC[C@@H]1CNC(=O)c2cnn3ccc(nc23)N[C@H](C)c2cc(F)ccc2O1 :: 6.87
O=C1NCCOc2ccc(F)cc2[C@@H](CCF)Nc2ccn3ncc1c3n2 :: 6.63
C[C@H]1Nc2ccn3ncc(c3n2)C(=O)N2CCC[C@H](C2)Oc2ccc(F)cc21 :: 6.11
CC(C)(O)[C@H]1Nc2ccn3ncc(c3n2)C(=O)NCCOc2ccc(F)cc21 :: 5.88
C[C@H]1CNC(=O)c2cnn3ccc(nc23)NC(C(=O)N(C)C)c2cc(F)ccc2O1 (some centres unmarked) :: 5.45
C[C@H]1Nc2ccn3ncc(c3n2)C(=O)N2CCC[C@@H](C2)Oc2ccc(F)cc21 :: 6.30
C[C@H]1Nc2ccn3ncc(c3n2)C(=O)NC[C@H](CO)Oc2ccc(F)cc21 :: 6.07
C[C@H]1Nc2ccn3ncc(c3n2)C(=O)NC[C@@H](CN2CCCC2)Oc2ccc(F)cc21 :: 6.88
C[C@H]1Nc2ccn3ncc(c3n2)C(=O)N[C@@H]2CCC[C@H]2Oc2ccc(F)cc21 :: 7.36

---

Tested on: T cell lymphoma Karpas-299 cell line (harboring endogenous NPM-ALK fusion gene)
protocol_description: Cell proliferation assay, Karpas-299 cells (CellTiter-Glo)
Assay type: cell-based
experimental_conditions: Homo sapiens, 72 hours incubation
pIC50: −log10 of the molar value.
readout: pIC50

CC[C@H]1CNC(=O)c2cnn3ccc(nc23)N[C@H](CC)c2cc(F)ccc2O1 :: 6.84
C[C@H]1Nc2ccn3ncc(c3n2)C(=O)N[C@@H](CO)COc2ccc(F)cc21 :: 7.19
O=C1NCCOc2ccc(F)cc2[C@@H](CCO)Nc2ccn3ncc1c3n2 :: 6.45
C[C@H]1Nc2ccn3ncc(c3n2)C(=O)NC[C@H](CO)Oc2ccc(F)cc21 :: 6.10

---

assayed_system: EML4-ALK Ba/F3 (Homo sapiens, UniProt Q9UM73)
Construct: fused on or other part: Q9HC35 (Echinoderm microtubule-associated protein-like 4)
Sequence (Q9UM73 whole entry, change not shown, the tested form may be a part): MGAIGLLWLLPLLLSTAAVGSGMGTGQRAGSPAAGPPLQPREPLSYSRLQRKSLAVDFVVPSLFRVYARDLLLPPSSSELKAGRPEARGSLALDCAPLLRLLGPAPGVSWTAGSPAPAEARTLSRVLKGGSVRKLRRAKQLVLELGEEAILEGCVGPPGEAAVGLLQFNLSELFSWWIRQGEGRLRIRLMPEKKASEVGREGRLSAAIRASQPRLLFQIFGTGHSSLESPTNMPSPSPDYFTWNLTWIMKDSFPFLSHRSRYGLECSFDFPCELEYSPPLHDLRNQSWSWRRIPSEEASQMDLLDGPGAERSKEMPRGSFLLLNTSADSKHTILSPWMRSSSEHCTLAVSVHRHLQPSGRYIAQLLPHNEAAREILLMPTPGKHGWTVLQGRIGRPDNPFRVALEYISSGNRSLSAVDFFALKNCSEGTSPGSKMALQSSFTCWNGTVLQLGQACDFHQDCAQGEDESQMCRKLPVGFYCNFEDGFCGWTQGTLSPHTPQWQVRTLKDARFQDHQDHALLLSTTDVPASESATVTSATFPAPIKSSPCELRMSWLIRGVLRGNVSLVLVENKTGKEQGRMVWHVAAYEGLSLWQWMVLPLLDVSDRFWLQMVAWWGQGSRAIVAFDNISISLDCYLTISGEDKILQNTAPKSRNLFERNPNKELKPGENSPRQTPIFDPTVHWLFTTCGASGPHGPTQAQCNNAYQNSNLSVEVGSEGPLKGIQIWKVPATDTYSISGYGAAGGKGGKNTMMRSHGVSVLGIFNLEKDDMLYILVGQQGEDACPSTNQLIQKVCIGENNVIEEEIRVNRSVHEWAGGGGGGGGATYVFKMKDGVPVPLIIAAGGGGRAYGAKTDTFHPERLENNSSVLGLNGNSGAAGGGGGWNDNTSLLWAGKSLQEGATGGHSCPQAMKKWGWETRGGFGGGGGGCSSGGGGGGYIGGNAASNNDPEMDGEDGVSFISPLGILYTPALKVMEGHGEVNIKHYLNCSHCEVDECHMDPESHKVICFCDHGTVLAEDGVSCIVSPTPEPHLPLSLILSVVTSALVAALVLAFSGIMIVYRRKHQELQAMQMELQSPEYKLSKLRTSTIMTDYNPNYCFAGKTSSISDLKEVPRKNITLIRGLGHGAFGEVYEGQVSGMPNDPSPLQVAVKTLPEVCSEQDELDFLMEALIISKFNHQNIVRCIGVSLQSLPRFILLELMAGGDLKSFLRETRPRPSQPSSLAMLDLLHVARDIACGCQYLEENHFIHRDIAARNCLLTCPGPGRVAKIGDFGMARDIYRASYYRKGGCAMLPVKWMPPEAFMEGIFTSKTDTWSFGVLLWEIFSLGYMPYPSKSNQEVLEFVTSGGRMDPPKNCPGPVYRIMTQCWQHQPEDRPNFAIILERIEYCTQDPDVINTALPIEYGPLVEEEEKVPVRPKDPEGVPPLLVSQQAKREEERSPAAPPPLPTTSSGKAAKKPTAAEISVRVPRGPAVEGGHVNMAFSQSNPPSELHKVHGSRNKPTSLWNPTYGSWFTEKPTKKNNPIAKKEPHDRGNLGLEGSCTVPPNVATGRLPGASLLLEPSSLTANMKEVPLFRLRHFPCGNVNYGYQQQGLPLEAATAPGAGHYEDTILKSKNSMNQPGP
protocol_description: Cell proliferation assay, EML4-ALK Ba/F3 stable cell line (CellTiter-Glo)
Format: cell-based
experimental_conditions: Ba/F3-EML4-ALK wild type (variant 1) cells, 72 hours compound incubation; read-out: Cell Proliferation IC50 EML4-ALK Ba/F3
Reported GI50 values for a set of compounds
readout: GI50 (nM)

CC[C@H]1COc2ccc(F)cc2[C@@H](CC)Nc2ccn3ncc(c3n2)C(=O)N1 :: 6790
C[C@H]1Nc2ccn3ncc(c3n2)C(=O)N[C@@H](CO)COc2ccc(F)cc21 :: 116
C[C@H]1CNC(=O)c2cnn3ccc(nc23)N[C@H](C)c2cc(F)cnc2O1 :: 218
CC[C@@H]1CNC(=O)c2cnn3ccc(nc23)N[C@H](C)c2cc(F)cnc2O1 :: 31
C[C@H]1Nc2ccn3ncc(c3n2)C(=O)NC[C@@H](CF)Oc2ccc(F)cc21 :: 96.3
C[C@H]1Nc2ccn3ncc(c3n2)C(=O)N[C@H](CO)COc2ccc(F)cc21 :: 2130
